biological target: hDGKalpha(1-735)-N-His (Homo sapiens (Human))
Sequence (P23743 whole entry): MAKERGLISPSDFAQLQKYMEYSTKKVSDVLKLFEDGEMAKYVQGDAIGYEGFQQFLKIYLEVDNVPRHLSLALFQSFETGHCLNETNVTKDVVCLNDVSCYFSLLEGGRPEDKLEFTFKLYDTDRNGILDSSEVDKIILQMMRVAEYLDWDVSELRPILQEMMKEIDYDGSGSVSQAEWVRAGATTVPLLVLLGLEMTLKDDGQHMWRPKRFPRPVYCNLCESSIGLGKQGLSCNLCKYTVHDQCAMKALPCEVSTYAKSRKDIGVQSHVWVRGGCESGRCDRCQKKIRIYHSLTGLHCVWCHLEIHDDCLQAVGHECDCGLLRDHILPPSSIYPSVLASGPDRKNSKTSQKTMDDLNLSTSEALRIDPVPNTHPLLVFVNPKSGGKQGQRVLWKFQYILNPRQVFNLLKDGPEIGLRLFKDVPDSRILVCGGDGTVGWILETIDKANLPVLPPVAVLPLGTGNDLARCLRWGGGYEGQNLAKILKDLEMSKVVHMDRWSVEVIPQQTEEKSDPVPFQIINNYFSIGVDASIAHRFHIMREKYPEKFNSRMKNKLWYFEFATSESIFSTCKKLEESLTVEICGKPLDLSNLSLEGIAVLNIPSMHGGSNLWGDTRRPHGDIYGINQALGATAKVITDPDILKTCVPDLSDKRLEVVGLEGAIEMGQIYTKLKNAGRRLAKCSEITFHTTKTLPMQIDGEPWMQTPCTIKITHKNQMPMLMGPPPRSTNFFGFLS
Entries annotated with measured IC50
Report only the number, with the unit nM understood.

>>> numeric_readout("N[C@H]1CS(=O)(=O)c2ccc(-c3nnc(C4CCCC(F)(F)C4)o3)cc2N(Cc2ccc(Cl)cc2)C1=O (some centres unmarked)")
1400
>>> numeric_readout("CC(C)(C)c1nnc(-c2cc3c(cc2F)S(=O)(=O)C[C@H](N)C(=O)N3Cc2ccc(OC3CCCC3)cc2)o1")
198

The molecule listed as N[C@H]1CS(=O)(=O)c2cc(F)c(-c3noc(C(N)(c4ccc(F)cc4)C(F)(F)F)n3)cc2N(Cc2ccc(Cl)cc2)C1=O (some centres unmarked) shows IC50 equal to 3940

Field IC50 (entry CC(C)(C)c1nnc(-c2cc3c(cc2F)S(=O)(=O)C[C@H](NC(=O)CN)C(=O)N3Cc2ccc(Cl)cc2)o1 ) reads 54500

Consider CC(C)(C)c1nc(-c2cc3c(cc2F)S(=O)(=O)C[C@H](N)C(=O)N3Cc2ccc(OC3CCCC3)cc2)no1 . Its measured IC50 is 1610

Item: CC1(C)CN(c2nc(-c3cc4c(cc3F)S(=O)(=O)C[C@H](N)C(=O)N4Cc3ccc(Cl)cc3)no2)CCO1 | IC50: 299

Consider COC(=O)N1CCC(c2nnc(-c3ccc4c(c3)N(Cc3ccc(OC5CCCC5)cc3)C(=O)[C@@H](N)CS4(=O)=O)o2)C1 (some centres unmarked) . Its measured IC50 is 6110

get_value(item= CC(C)(C)c1nnc(-c2cc3c(cc2Cl)S(=O)(=O)C[C@H](N)C(=O)N3Cc2ccc(Cl)cc2)o1 , readout=IC50) returns 1290

So for CC(C)(C)c1nnc(-c2cc3c(cc2F)S(=N)(=O)C[C@H](N)C(=O)N3Cc2ccc(OC(F)(F)F)cc2)o1 (single isomer, unassigned) , the logged IC50 turned out to be 442

Sample N[C@H]1CS(=O)(=O)c2cc(F)c(-c3nnc(NC4CCCCC4)o3)cc2N(Cc2ccc(Cl)cc2)C1=O ; IC50 observed: 2090

Item: CN1CCCC(F)(c2nc(-c3cc4c(cc3F)S(=O)(=O)C[C@H](N)C(=O)N4Cc3ccc(Oc4ccccc4)cc3)no2)C1 (some centres unmarked) | IC50: 4070
